target-entity: rat P2X7 (Rattus norvegicus, UniProt Q64663)
Sequence (Q64663 whole entry): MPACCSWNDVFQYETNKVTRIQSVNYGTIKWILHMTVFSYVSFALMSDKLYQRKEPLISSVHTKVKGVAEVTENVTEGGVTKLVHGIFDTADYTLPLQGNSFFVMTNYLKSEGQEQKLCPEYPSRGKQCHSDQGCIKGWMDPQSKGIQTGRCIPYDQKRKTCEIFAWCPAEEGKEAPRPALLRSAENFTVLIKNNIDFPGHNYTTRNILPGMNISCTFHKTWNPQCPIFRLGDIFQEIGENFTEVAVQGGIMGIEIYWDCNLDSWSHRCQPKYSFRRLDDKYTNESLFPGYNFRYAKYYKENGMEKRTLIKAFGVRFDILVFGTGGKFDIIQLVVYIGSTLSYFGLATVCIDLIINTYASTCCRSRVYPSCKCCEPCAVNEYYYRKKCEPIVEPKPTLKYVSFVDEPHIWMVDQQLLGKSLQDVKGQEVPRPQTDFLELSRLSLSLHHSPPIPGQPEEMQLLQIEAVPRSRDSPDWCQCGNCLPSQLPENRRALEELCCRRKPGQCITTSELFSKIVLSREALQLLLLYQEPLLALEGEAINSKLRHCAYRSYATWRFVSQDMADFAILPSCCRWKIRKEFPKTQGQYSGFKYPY
experiment-summary: Ca2+ flux (FLIPR) in 1321N1 cells expressing recombinant rat P2X7 channel
details: FLIPR (rat) IC50 (μM), 250 μM BzATP
property-name: log10 IC50 (log10 of the value in µM)
For clarity, the numbers are log10 values of IC50 expressed in µM.

1) Cc1c(C(=O)N2CCn3c(C)nnc3[C@@H]2c2ccc(F)cc2)cccc1C(F)(F)F    0.85
2) O=C(c1cccc(C(F)(F)F)c1Cl)N1CCn2c(C3CC3)nnc2[C@@H]1c1ccc(F)cc1    -0.75
3) C[C@H]1Cn2c(nnc2-c2ccc(F)cn2)CN1C(=O)c1cccc(C(F)(F)F)c1Cl    -2.11
4) CC(C)(C)c1nnc2n1CCN(C(=O)c1cccc(C(F)(F)F)c1Cl)[C@H]2c1ccccc1    0.27
5) O=C(c1cccc(Cl)c1Cl)N1CCn2c(nnc2C(F)(F)F)[C@H]1c1ccccc1    -0.31
6) O=C(c1ccnc(C(F)(F)F)c1Cl)N1CCn2c(nnc2C(F)(F)F)C1c1ccccc1 (single isomer, unassigned)    -1.46

I'm hoping you can list log10 IC50 for every molecule here, please.
1. C[C@H]1Cn2c(nnc2-c2ccc(C(F)(F)F)cc2)CN1C(=O)c1cccc(C(F)(F)F)c1Cl
2. O=C(c1cccc(C(F)(F)F)c1Cl)N1CCn2c(C3CC3)nnc2[C@@H]1c1ccccc1
3. O=C(c1cccc(Cl)c1Cl)N1CCn2c(nnc2C(F)(F)F)C1c1ccccc1 (racemic)
4. O=C(c1cccc(C(F)(F)F)c1Cl)N1CCn2c(-c3ccco3)nnc2[C@H]1c1ccccc1

[reply]
[0.47, -1.77, -0.02, 0.00]

I'm hoping you can list log10 IC50 for every molecule here, please.
1. C[C@H]1Cn2c(nnc2-c2ccc(F)c(F)c2)CN1C(=O)c1ccc(F)c(Cl)c1Cl
2. CC(O)c1nnc2n1CCN(C(=O)c1cccc(C(F)(F)F)c1Cl)C2c1ccccc1 (racemic)
3. C[C@H]1Cn2c(nnc2-c2ccc(C(F)(F)F)c(F)c2)CN1C(=O)c1cccc(Cl)c1Cl
4. O=C(c1cccc(C(F)(F)F)c1Cl)N1CCn2c(nnc2C(F)(F)F)C1c1ccccc1 (racemic)

[reply]
1: 0.44; 2: -0.40; 3: 0.58; 4: -0.27

Data provenance is patent US12338243B2.
